- Tested on: tet operator sequence
- protocol_summary: β-galactosidase activity of a tetracycline-regulated promoter in transformed E. coli with revTetR, in the presence and absence of anhydrotetracycline (atc)
- Format: cell-based, Escherichia coli
- settings: RevTetR isolate cultured in the presence of anhydrotetracycline (ATC)
assay_endpoint: β-Galactosidase Activity, Cultured With ATC

molecule	experimental_value
TetRrev6-50: revTetR(BD) V99G (protein, Modified tetracycline repressor, revTetR(BD) V99G) MSRLDKSKVINSALELLNEVGIEGLTTRKLAQKLGVEQPTLYWHVKNKRALLDALAVEILARHHDYSLPAAGESWQSFLRNNAMSFRRALLRYRDGAKGHLGTRPDEKQYDTVETQLRFMTENGFSLRDGLYAISAVSHFTLGAVLEQQEHTAALTDRPAAPDENLPPLLREALQIMDSDDGEQAFLHGLESLIRGFEVQLTALLQIV	2.469
TetRrevAtc4-1: revTetR(BD) A50S D53F A56G V57I H63Q (protein, Modified tetracycline repressor, revTetR(BD) A50S D53F A56G V57I H63Q) MSRLDKSKVINSALELLNEVGIEGLTTRKLAQKLGVEQPTLYWHVKNKRSLLFALGIEILARQHDYSLPAAGESWQSFLRNNAMSFRRALLRYRDGAKVHLGTRPDEKQYDTVETQLRFMTENGFSLRDGLYAISAVSHFTLGAVLEQQEHTAALTDRPAAPDENLPPLLREALQIMDSDDGEQAFLHGLESLIRGFEVQLTALLQIV	6.9011
TetRrev6-53: revTetR(BD) A97P K98R V99D (protein, Modified tetracycline repressor, revTetR(BD) A97P K98R V99D) MSRLDKSKVINSALELLNEVGIEGLTTRKLAQKLGVEQPTLYWHVKNKRALLDALAVEILARHHDYSLPAAGESWQSFLRNNAMSFRRALLRYRDGPRDHLGTRPDEKQYDTVETQLRFMTENGFSLRDGLYAISAVSHFTLGAVLEQQEHTAALTDRPAAPDENLPPLLREALQIMDSDDGEQAFLHGLESLIRGFEVQLTALLQIV	27.918
TetRrev28/49: revTetR(BD) N18Y V20D I22T (protein, Modified tetracycline repressor, revTetR(BD) N18Y V20D I22T) MSRLDKSKVINSALELLYDVGTEGLTTRKLAQKLGVEQPTLYWHVKNKRALLDALAVEILARHHDYSLPAAGESWQSFLRNNAMSFRRALLRYRDGAKVHLGTRPDEKQYDTVETQLRFMTENGFSLRDGLYAISAVSHFTLGAVLEQQEHTAALTDRPAAPDENLPPLLREALQIMDSDDGEQAFLHGLESLIRGFEVQLTALLQIV	8.2716
TetRrevAtc4-11: revTetR(BD) L55L A56P R62S (protein, Modified tetracycline repressor, revTetR(BD) L55L A56P R62S) MSRLDKSKVINSALELLNEVGIEGLTTRKLAQKLGVEQPTLYWHVKNKRALLDALPVEILASHHDYSLPAAGESWQSFLRNNAMSFRRALLRYRDGAKVHLGTRPDEKQYDTVETQLRFMTENGFSLRDGLYAISAVSHFTLGAVLEQQEHTAALTDRPAAPDENLPPLLREALQIMDSDDGEQAFLHGLESLIRGFEVQLTALLQIV	17.479
